# credit: patent US20210253725A1

target.entity: T1, CD134 expressed on the cell surface of HT1080_OX40 cells (human, UniProt P43489 29-277); further: test concentration or dose not given here
T1 sequence (looked up): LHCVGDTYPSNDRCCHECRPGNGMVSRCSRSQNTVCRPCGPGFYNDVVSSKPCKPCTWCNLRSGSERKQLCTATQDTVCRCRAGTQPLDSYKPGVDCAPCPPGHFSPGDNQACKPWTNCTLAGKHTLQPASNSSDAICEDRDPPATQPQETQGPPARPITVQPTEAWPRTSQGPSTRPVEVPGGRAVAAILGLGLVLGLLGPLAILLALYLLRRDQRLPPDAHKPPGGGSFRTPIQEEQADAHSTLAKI
assay.text: cell-based or functional assay
Rule: Functional assay Cross-linked by F(ab′)2 fragment IL-8 below 2 abs. corr. gives 1.0. Equal to or above 2 abs. corr. gives 0.0.

binder	assigned.category
P018.S.11.A.G03 (antibody, V domains shown, V regions on human Ig constant parts; also called AB134_43) VH: QSLEESGGRLVTPGTPLTLTCTASGFSLTNYAMNWVRQAPGKGLEWIGFINYDGNTYYANWAKGRFTISRTSTTVDLKITSPTTEDTATYFCARGGDGYTHIPDTFDPWGPGTLVTVSS VL: AFEMTQTPSSVSVAVGGTVTIKCQASQSIYSYLSWYQQKPGQPPKLLIYYASTLASGVPSRFVGSGSGTQFTLTISGVESADAATYYCQQGYSYSNIDNVFGGGTEMVVK	0.0
P018.S.05.A.F05 (as anti-CD134 antibody) (antibody, V domains shown, V regions on human Ig constant parts; also called AB134_16) VH: QSVEESGGRLVTPGTPLTLTCTVSGFSLSNYYMTWVRQAPGKGLEYIGIIGSGVSTYYANWAKGRFTISKASSTTVDLKMTSPTTEDTATYFCARDMYVGNWGDWGLWGQGTLVTVSS VL: AYDMTQTPASVEVAVGGTVTIKCQASQSISNNLNWYQQKPGQPPKLLIYSVSTLASGVPSRFKGSGSGTDYTLTISGVESVDAATYYCQQDYRIGDLDSAFGGGTEVVVK	1.0
P018.S.12.A.B05 (antibody, V domains shown, V regions on human Ig constant parts; also called AB134_59) VH: QQQLVESGGGLVKPGASLTLTCKASGFFFSGSYYMCWVRQAPGKGLEWIACIYTGSDDDTNYASWAKGRFTISKTSSTTVTLQMTSLTAADTATYFCARRNYDTDWGGDLWGPGTLVTVSS VL: AVVLTQTPASVEAAVGGTVTIKCQASQSIGSSLAWYQQKPGQRPKLLIYYASNLASGVSSRFKGSGSGTQFTLTISDLESADAATYYCQCTYTSSDYLDAFGGGTEVVVK	0.0
P018.S.12.A.B06 (antibody, V domains shown, V regions on human Ig constant parts; also called AB134_60) VH: QEQLEESGGGLVQPEGSLTLTCTASGFSFSYYWMCWVRQAPGKGLEWSACIGTGSGSTYYATWAKGRFTISKTSSTTVTLQMTSLTAADTATYFCARDWGIYSSDAYYMDYFNLWGPGTLVTVSS VL: AFELTQTPASVEAAVGGTVTIKCQASQSIGSYLAWYQQKPGQPPKPLIYEASKLASGVSSRFKGSGSGTQFTLTISGVESADAATYYCQQGGISTNVQNAFGGGTEVVVK	0.0
P018.S.08.A.B03 (antibody, V domains shown, V regions on human Ig constant parts; also called AB134_19) VH: QSVEESGGRLVTPGTPLTLTCTVSGFSLSRYAITWVRQAPGKGLEWIGIISSSGTTYYASWAKGRFTISKTSTTVDLKITSPTTEDTAIYFCARAIAGDAGYVYAIDWLDLWGQGTLVTVSS VL: DPVLTQTPSSASEPVGGTVTIKCQASEYISNYLSWYQQKPGQPPKLLIFGASTLESGVPSRFSGSGSGTEFTLTISGVQSADAATYYCQGGYFSSSTTYVAFGGGTEVVVR	1.0
P018.S.04.A.G05 (antibody, V domains shown, V regions on human Ig constant parts; also called AB134_14) VH: QSVEESGGRLVTPGTPLTLTCTVSGFSLSTYYMSWVRQAPGKSLEWIGCIHGDDGSTWYASWVQGRFTISKASTTVDLQIASPTTEDTATYFCARGLPYWPNDGDFNLWGQGTLVTVSS VL: TQVLTQTPSPVSAAVGGTVSISCQSSQSVYNNNWLSWFQQKPGQPPKLLVYGASTLASGVPSRFKGSGSGTQFTLTISDLESDDAATYYCAGGYYTTSDNGFGGGTEVVVK	0.0
P018.S.12.A.D03 (antibody, V domains shown, V regions on human Ig constant parts; also called AB134_68) VH: QERLVESGGGLVKPGASLTLTCTASGFSFSSGYDMCWVRQAPGKGLEWVGCIDTGTGTIYYASWAPGRFTISETSSTMVTLQMTSLTAADTATYFCARSVGGYDYAIDLWGPGTLVTVSS VL: AYDMTQTPASVEVPVGGTVTIKCQASQNIGSRLVWYQQKPGQSPKFLIYYASNLASGVSSRFKGSGSGTQFTLTISDVQSDNAATYYCQQTYSYSDVDDTFGGGTEVVVK	1.0
